# method.description: chemical genetic growth profiling, strain panel (AID 1159580);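 further: tested at 20 µM; growth read once vehicle control cultures reached saturation at 30 °C; lower values mean less growth of the strain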
# measurement.parameters: S. cerevisiae deletion strains, growth OD, locus YPL256C, strain CLN2
Among all 5,500 compounds or so, about 2,000 (36%) were called active. Roughly 18% stayed inconclusive and do not appear here. No stated cut-off is given here; in the data, active means normalized growth mostly below about 0.91 (no sharp cut-off); inconclusive means no clear call, values can overlap the other calls; inactive means mostly above about 0.92. The list shows a part of the results.
Hi there, use one of these labels in your reply, thanks! active, inactive

Known results for compounds:
{"compound": "CC[C@@H](C(=O)[C@@H](C)[C@@H](O)[C@H](C)[C@@H]1O[C@@H]([C@@H](CC)C(=O)O)CC[C@@H]1C)[C@H]1OC2(C=C[C@@H](O)[C@]3(CC[C@@](C)([C@H]4CC[C@](O)(CC)[C@H](C)O4)O3)O2)[C@H](C)C[C@@H]1C (stereo not given in full)", "category.label": "active"}
{"compound": "N/C(=N/OC(=O)c1ccc(Cl)cc1)c1ccc(F)cc1F", "category.label": "active"}

Entry "CCn1cc(C(=O)O)c(=O)c2cc3c(cc21)OCO3" : call = ?
inactive

Entry "CCn1cc(C(=O)O)c(=O)c2cnc(N3CCCC3)nc21" : call = ?
inactive

# credit: PubChem BioAssay AID1159580
